Molecular target: 5-hydroxytryptamine receptor 4 (Homo sapiens, UniProt Q13639)
Sequence (Q13639 whole entry): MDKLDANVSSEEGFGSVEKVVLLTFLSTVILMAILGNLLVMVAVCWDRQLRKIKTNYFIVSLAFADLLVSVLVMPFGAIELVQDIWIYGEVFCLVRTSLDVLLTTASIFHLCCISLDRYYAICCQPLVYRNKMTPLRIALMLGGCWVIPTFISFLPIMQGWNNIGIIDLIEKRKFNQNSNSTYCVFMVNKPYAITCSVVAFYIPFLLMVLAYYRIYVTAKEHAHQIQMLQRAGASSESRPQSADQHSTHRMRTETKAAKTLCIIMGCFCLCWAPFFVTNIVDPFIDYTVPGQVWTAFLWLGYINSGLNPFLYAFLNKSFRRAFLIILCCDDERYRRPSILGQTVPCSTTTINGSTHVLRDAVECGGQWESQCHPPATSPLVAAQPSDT
Experiment: Displacement of [3H]-GR113808 from human 5-HT4 receptor expressed in African green monkey COS7 cell membranes after 30 mins by liquid scintillation counting analysis
pIC50: −log10 of the molar value.
PROPERTY MEASURED: pIC50

INSERT INTO assay_data (molecule, observed_measurement) VALUES
  ('COC(=O)N1CCC(CN2CC[C@H](NC(=O)c3cc(Cl)c(N)cc3OC)[C@H](OC)C2)CC1 (relative stereo)', 6.72),
  ('COc1cc(N)c(Cl)cc1C(=O)N[C@H]1CCN(CCCn2ccnc2)C[C@H]1OC (relative stereo)', 5.93),
  ('CCC(=S)N1CCC(CN2CC[C@H](NC(=O)c3cc(Cl)c(N)cc3OC)[C@H](OC)C2)CC1 (relative stereo)', 6.23),
  ('COc1cc(N)c(Cl)cc1C(=O)N[C@H]1CCN(CC2CCN(C(C)=O)CC2)C[C@H]1OC (relative stereo)', 6.23),
  ('COc1cc(N)c(Cl)cc1C(=O)N[C@H]1CCN(CCCn2cccc2)C[C@H]1OC (relative stereo)', 6.19),
  ('CCC(=O)N1CCCC(CN2CC[C@H](NC(=O)c3cc(Cl)c(N)cc3OC)[C@H](OC)C2)C1 (relative stereo)', 6.31),
  ('COc1cc(N)c(Cl)cc1C(=O)N[C@H]1CCN(CCC(=O)N2CCC(Cc3ccccc3)CC2)C[C@H]1OC (relative stereo)', 7.18),
  ('COc1cc(N)c(Cl)cc1C(=O)N[C@H]1CCN(CC2CCN(C(=O)NC(C)C)CC2)C[C@H]1OC (relative stereo)', 7.14),
  ('COc1cc(N)c(Cl)cc1C(=O)N[C@H]1CCN(CCC(=O)N2CCCC2)C[C@H]1OC (relative stereo)', 6.04),
  ('COc1cc(N)c(Cl)cc1C(=O)N[C@H]1CCN(CCC(=O)N2CCCCC2)C[C@H]1OC (relative stereo)', 6.25),
  ('CCCC(=O)N1CCC(CN2CC[C@H](NC(=O)c3cc(Cl)c(N)cc3OC)[C@H](OC)C2)CC1 (relative stereo)', 6.75),
  ('CCC(=O)N1CCC(CCN2CC[C@H](NC(=O)c3cc(Cl)c(N)cc3OC)[C@H](OC)C2)CC1 (relative stereo)', 6.09),
  ('COc1cc(N)c(Cl)cc1C(=O)N[C@H]1CCN(CCCn2ncnn2)C[C@H]1OC', 5.95),
  ('COc1cc(N)c(Cl)cc1C(=O)N[C@H]1CCN(CC2CCN(C(=S)C(C)C)CC2)C[C@H]1OC (relative stereo)', 6.81),
  ('COc1cc(N)c(Cl)cc1C(=O)N[C@H]1CCN(CCCn2cncn2)C[C@H]1OC (relative stereo)', 5.90),
  ('COc1cc(N)c(Cl)cc1C(=O)N[C@H]1CCN(CCC(=O)N2CCOCC2)C[C@H]1OC (relative stereo)', 6.02),
  ('CCC(=O)N1CCC(CN2CC[C@H](NC(=O)c3cc(Cl)c(N)cc3OC)[C@H](OC)C2)CC1 (relative stereo)', 6.48),
  ('COc1cc(N)c(Cl)cc1C(=O)N[C@H]1CCN(CCn2cccc2)C[C@H]1OC (relative stereo)', 5.24),
  ('COc1cc(N)c(Cl)cc1C(=O)N[C@H]1CCN(CC2CCN(C(=O)C(C)(C)C)CC2)C[C@H]1OC (relative stereo)', 6.93),
  ('CCCOC(=O)N1CCC(CN2CC[C@H](NC(=O)c3cc(Cl)c(N)cc3OC)[C@H](OC)C2)CC1 (relative stereo)', 6.87),
  ('COc1cc(N)c(Cl)cc1C(=O)N[C@H]1CCN(CC2CCN(C(=O)N(C)C)CC2)C[C@H]1OC (relative stereo)', 7.28);
